Data provenance: patent US20240092919A1

- Assay Target: T1, Cynomolgus TCR(AEA41865/AEA41866)-zipper protein (cynomolgus monkey)
- T1 construct: also called cyTCR-zipper protein; cynoTCR zipper
- T1 TCR alpha: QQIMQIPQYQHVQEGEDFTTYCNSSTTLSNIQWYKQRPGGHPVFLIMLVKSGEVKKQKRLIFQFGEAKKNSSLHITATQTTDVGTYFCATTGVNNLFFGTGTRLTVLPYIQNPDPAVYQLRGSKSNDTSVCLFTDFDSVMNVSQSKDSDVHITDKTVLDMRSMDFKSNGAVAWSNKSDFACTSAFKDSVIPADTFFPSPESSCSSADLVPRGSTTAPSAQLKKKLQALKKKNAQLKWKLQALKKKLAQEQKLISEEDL
- T1 TCR beta: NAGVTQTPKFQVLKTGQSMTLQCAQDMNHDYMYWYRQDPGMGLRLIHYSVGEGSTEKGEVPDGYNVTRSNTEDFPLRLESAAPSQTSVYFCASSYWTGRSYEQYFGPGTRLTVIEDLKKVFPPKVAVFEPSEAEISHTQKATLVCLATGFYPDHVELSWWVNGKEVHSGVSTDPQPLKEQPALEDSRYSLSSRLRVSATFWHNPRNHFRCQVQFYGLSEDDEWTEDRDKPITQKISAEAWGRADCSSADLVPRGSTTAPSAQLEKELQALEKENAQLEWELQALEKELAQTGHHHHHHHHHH
- Assay: SPR ProteOn off-rate screen
Property Measured: koff (s⁻¹)

T017000411 (VHH) VHH: EVQLVESGGGVVQPGGSLRLSCVASWDVHKINFYGWYRQAPGKEREKVAHISIGDQTDYADSAKGRFTISRDESKNMVYLQMNSLRPEDTALYFCRAMSRIWPYDYWGQGTLVTVSS | 0.00156
T017000373 (VHH) VHH: EVQLVESGGGVVQPGGSLRLSCVASGSVHKLNFLGWYRQAPGKEREKVAHISIGDQTDYADSAKGRFTISRDESKNMVYLQMNSLRPEDTALYFCRAMSRIWPYDYWGQGTLVTVSS | 0.000913
T017000607 (VHH) VHH: EVQLVESGGGVVQPGGSLRLSCVASWDVHQINFYGWYRQAPGKEREKVAHISIGDQTDYADSAKGRFTISRDESKNMVYLQMNSLRPEDTALYFCRAFSKIWPYDYWGQGTLVTVSS | 0.000316
T017000614 (VHH) VHH: EVQLVESGGGVVQPGGSLRLSCVASGYVHKINFYGWYRQAPGKEREKVAHISIGDQTDYADSAKGRFTISRDESKNMVYLQMNSLRPEDTALYFCRALSRIWPYDYWGQGTLVTVSS | 0.00116

a. T017000413 (VHH) VHH: EVQLVESGGGVVQPGGSLRLSCVASWDVHQLNFYGWYRQAPGKEREKVAHISIGDQTDYADSAKGRFTISRDESKNMVYLQMNSLRPEDTALYFCRAMSKIWPYDYWGQGTLVTVSS
b. T017000432 (VHH) VHH: EVQLVESGGGVVQPGGSLRLSCVASGSVHKLNFYGWYRQAPGKEREKVAHISIGDQTDYADSAKGRFTISRDESKNMVYLQMNSLRPEDTALYFCRAMSKIWPYDYWGQGTLVTVSS
c. T017000539 (VHH) VHH: EVQLVESGGGVVQPGGSLRLSCVASGYVHKINFYGWYRQAPGKEREKVAHISIGDQTDYADSAKGRFTISRDESKNMVYLQMNSLRPEDTALYFCRAMSRIWPYDWWGQGTLVTVSS
d. T017000509 (VHH) VHH: EVQLVESGGGVVQPGGSLRLSCVASGAVHKINFLGWYRQAPGKEREKVAHISIGDQTDYADSAKGRFTISRDESKNMVYLQMNSLRPEDTALYFCRAMSKIWPYDWWGQGTLVTVSS
Query string: Put the entries in order of koff, starting with the largest number. Order the labels as requested and give them as your answer.
Result string: c, d, a, b
(c: 0.00151 s⁻¹, d: 0.000609 s⁻¹, a: 0.000238 s⁻¹, b: 0.000142 s⁻¹)
